Test system: HS 578 T
experiment: NCI-60 cytotoxicity screen
Format: cell-based
test_parameters: Homo sapiens, NCI-60, 48 h, breast
measurement_name: IC50

For every item in the list below, what is its measured IC50?
1. C=C(CN1CCN(c2ccccc2C(F)(F)F)CC1)c1ccc(C(=O)Nc2ccccc2N)cc1
2. C=C(CN1CCN(c2ccc(C(F)(F)F)cc2)CC1)c1ccc(C(=O)Nc2ccccc2N)cc1
3. C=C(CN1CCN(c2cccc(C(F)(F)F)n2)CC1)c1ccc(C(=O)Nc2ccccc2N)cc1
4. C=C(CN1CCN(c2ccccn2)CC1)c1ccc(C(=O)Nc2ccccc2N)cc1
5. Nc1ccccc1NC(=O)c1ccc(CNC(=O)OCc2cccnc2)cc1 [Compound 1, Entinostat, reference compound]

OUTPUT:
1. 12800 nM
2. 22500 nM
3. 450 nM
4. 1110 nM
5. 2330 nM

INPUT: Please give the documented IC50 of C=C(CN1CCN(c2cccc(C(F)(F)F)c2)CC1)c1ccc(C(=O)Nc2ccccc2N)cc1
OUTPUT: 490 nM
